Biological target: T1, His-Gαi3 (rat, UniProt P08753 1-354)
T1 construct: also called His-Gαi3-GDP; recombinant His-Gαi3; source: E. coli BL21 (DE3), purified (HisPur Cobalt Resin)
T1 sequence (P08753 whole entry): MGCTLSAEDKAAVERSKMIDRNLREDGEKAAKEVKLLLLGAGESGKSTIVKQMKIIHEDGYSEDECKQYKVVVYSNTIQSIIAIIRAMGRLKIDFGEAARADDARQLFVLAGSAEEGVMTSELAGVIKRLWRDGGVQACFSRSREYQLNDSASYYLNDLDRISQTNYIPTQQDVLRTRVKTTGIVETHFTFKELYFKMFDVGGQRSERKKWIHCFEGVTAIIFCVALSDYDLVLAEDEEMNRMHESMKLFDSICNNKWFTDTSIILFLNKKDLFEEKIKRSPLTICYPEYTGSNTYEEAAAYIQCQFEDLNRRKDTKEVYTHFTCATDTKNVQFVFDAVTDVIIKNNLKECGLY
Experiment: pull-down; GST-Daple-CT or GST-GIV-CT immobilised on glutathione-agarose beads; 0.01–3 µM purified His-Gαi3 (GDP-loaded); band intensities of immunoblots fitted to a single-site binding hyperbola; four independent experiments
Conditions: both partners purified
pKd: −log10 of the molar value.
ENDPOINT_LABEL: pKd

| BINDER | ENDPOINT_LABEL | RESULT_NUMBER |
| --- | --- | --- |
| GST-GIV-CT (aa 1671–1755) (domain or fragment, UniProt Q3V6T2 1671-1755, looked up, GIV (CCDC88A, Girdin), aa 1671–1755, holds the GBA motif; also called GST-GIV CT 1671–1755 aa; source: E. coli BL21 (DE3), purified (glutathione-Sepharose 4B)) IKTGSPGSEVVTLQQFLEESNKLTSVQIKSSSQENLLDEVMKSLSVSSDFLGKDKPVSCGLARSVSGKTPGDFYDRRTTKPEFLR | pKd | 6.62 |
